- System: AA1029
- TEST SUMMARY: qHTS profiling for inhibitors of Plasmodium falciparum proliferation (AID 504749); further: nearly all actives have a fitted effect of over 60% in size
- TEST SETTINGS: P. falciparum in erythrocytes, SYBR Green DNA, 72 h; series mostly up to 28.7 µM
Results filed as inconclusive are left out. Calls of active or inactive are those of the source. The call rests on the fitted dose curve; in most records, active means well fitted inhibition curve with a large enough effect; inconclusive means small, poorly fitted or top-dose-only effect; inactive means flat fitted curve, though single readings scatter.
Field 'call' accepts 1 (yes) = active, 0 (no) = inactive

{"COMPOUND": "OC[C@H]1O[C@@H]2O[C@H]3[C@H](O)[C@@H](O)[C@@H](O[C@H]4[C@H](O)[C@@H](O)[C@@H](O[C@H]5[C@H](O)[C@@H](O)[C@@H](O[C@H]6[C@H](O)[C@@H](O)[C@@H](O[C@H]7[C@H](O)[C@@H](O)[C@@H](O[C@H]1[C@H](O)[C@H]2O)O[C@@H]7CO)O[C@@H]6CO)O[C@@H]5CO)O[C@@H]4CO)O[C@@H]3CO", "QUALITATIVE LABEL": "0 (no)"}
{"COMPOUND": "CC(=O)Oc1cccc(C(=O)O)c1OC(C)=O", "QUALITATIVE LABEL": "0 (no)"}
{"COMPOUND": "NC(=O)[C@@H]1CCCN1C(=O)[C@H](Cc1cnc[nH]1)NC(=O)[C@@H]1CCC(=O)N1", "QUALITATIVE LABEL": "0 (no)"}
{"COMPOUND": "CCCCC(CC)CCC(CC(C)C)OS(=O)(=O)O (stereo unspecified)", "QUALITATIVE LABEL": "0 (no)"}
{"COMPOUND": "CC1(C)S[C@@H]2[C@H](NC(=O)C3(N)CCCCC3)C(=O)N2[C@H]1C(=O)O", "QUALITATIVE LABEL": "0 (no)"}
{"COMPOUND": "CCC(Cc1c(I)cc(I)c(O)c1I)C(=O)O (stereo unspecified)", "QUALITATIVE LABEL": "0 (no)"}
{"COMPOUND": "O.O.O.O.O.O.O.O=S(=O)([O-])[O-].[Co+2]", "QUALITATIVE LABEL": "1 (yes)"}
{"COMPOUND": "COc1ccccc1N1CCN(CCCC(=O)c2ccc(F)cc2)CC1", "QUALITATIVE LABEL": "0 (no)"}
{"COMPOUND": "CC(C)c1nc(N(C)S(C)(=O)=O)nc(-c2ccc(F)cc2)c1/C=C/C(O)CC(O)CC(=O)O (stereo unspecified)", "QUALITATIVE LABEL": "0 (no)"}
{"COMPOUND": "O=P(O)(O)OP(=O)(O)OP(=O)(O)O", "QUALITATIVE LABEL": "0 (no)"}

Here's the next entry for you.
Exam item: How was Oc1ccc(Cl)c2c1CCC2 classified in this test?
Marked response: 0 (no)

----------
- TEST SUMMARY: P-glycoprotein substrates identified in KB-8-5-11 adenocarcinoma cell line, qHTS therapeutic library screen (AID 1346987); further: nearly all actives have a fitted effect of over 65% in size
- TEST SETTINGS: KB-8-5-11 (P-gp overexpressing) viability, CellTiter-Glo, 72 h; series mostly up to 44.5 µM
Inconclusive results are not listed. Activity calls are given as the source filed them. Calls come from the whole dose curve; as a rule, active = well fitted inhibition curve with a large enough effect; inconclusive = small, poorly fitted or top-dose-only effect; inactive = flat fitted curve, though single readings scatter.
MEASURED QUANTITY: Potency

Look over these answered cases.
{"COMPOUND": "Nc1ncnc2c1ncn2[C@H]1CC[C@@H](CO)O1", "OBS VALUE": "inactive"}
{"COMPOUND": "O=C(O)[C@H]1C(=CCO)O[C@H]2CC(=O)N12", "OBS VALUE": "inactive"}
{"COMPOUND": "OCC1(CO)COC(C(Cl)(Cl)Cl)OC1", "OBS VALUE": "inactive"}
{"COMPOUND": "CO[C@H]1C=CO[C@@]2(C)Oc3c(C)c(O)c4c(O)c(cc(O)c4c3C2=O)NC(=O)/C(C)=C\\C=C/[C@H](C)[C@H](O)[C@@H](C)[C@@H](O)[C@@H](C)[C@H](OC(C)=O)[C@@H]1C", "OBS VALUE": "inactive"}

Exam item: What does the record list as Potency for NC(=O)[C@@H]1C[C@]2(NC(=O)NC2=O)c2cc(F)ccc2O1 ?
Marked response: inactive

Exam item: What does the record list as Potency for Cc1ccc(S(=O)(=O)NCl)cc1 ?
Marked response: inactive

Exam item: What does the record list as Potency for C[C@@H]1O[C@@H]1P(=O)(O)O ?
Marked response: inactive

Exam item: What does the record list as Potency for COc1ccc(C(=O)c2ccc(C)cc2)c(O)c1 ?
Marked response: inactive

Exam item: What does the record list as Potency for NC[C@H]1O[C@H](O[C@H]2[C@H](O)[C@@H](O[C@H]3O[C@H](CO)[C@@H](O)[C@H](N)[C@H]3O)[C@H](N)C[C@@H]2N)[C@H](O)[C@@H](O)[C@@H]1O ?
Marked response: inactive
